In this section, each of the compounds is paired with its reported Inhibition.
- Test system: Cavia porcellus
- protocolSummary: Inhibition of ex vivo platelet aggregation induced by 5 uM Adenosine diphosphate (ADP) 1 hour after oral administration.
- Type: functional

# compound, Inhibition
data = [
    ("CCOC(=O)CC1CCc2ccc(NC(=O)c3ccc(C(=N)N4CCOCC4)cc3)cc2C1 (configuration not stated)", "98%"),
    ("CCOC(=O)CC1CCc2ccc(NC(=O)c3ccc(C(=N)NCc4ccco4)cc3)cc2C1 (configuration not stated)", "91%"),
    ("CCOC(=O)CC1COc2ccc(NC(=O)c3ccc(C(=N)N4CCOCC4)cc3)cc2C1 (configuration not stated)", "99%"),
    ("C#CCNC(=N)c1ccc(C(=O)Nc2ccc3c(c2)CC(CC(=O)OCC)CC3)cc1 (configuration not stated)", "99%"),
    ("C#CCNC(=N)c1ccc(C(=O)Nc2ccc3c(c2)CC(CC(=O)OCC)CO3)cc1 (configuration not stated)", "99%"),
    ("C=CCNC(=N)c1ccc(C(=O)Nc2ccc3c(c2)CC(CC(=O)OCC)CC3)cc1 (configuration not stated)", "21%"),
    ("CCC/N=C(\\N)c1ccc(C(=O)Nc2ccc3c(c2)CC(CC(=O)OCC)CC3)cc1 (configuration not stated)", "3%"),
]

---

- protocolSummary: Concentration in plasma 1 hr after oral administration
- Format: ADME, cell-free
- experimentalConditions: read-out: Plasma level
The entries below come with measured concentration at 1 h values attached.
assayReadout: concentration at 1 h

# compound, assayReadout, recordedResult
measured = [
    ("CCOC(=O)CC1CCc2ccc(NC(=O)c3ccc(C(=N)N4CCOCC4)cc3)cc2C1 (configuration not stated)", "concentration at 1 h", "7300 nM"),
    ("C#CCNC(=N)c1ccc(C(=O)Nc2ccc3c(c2)CC(CC(=O)OCC)CO3)cc1 (configuration not stated)", "concentration at 1 h", "3800 nM"),
    ("CCC/N=C(\\N)c1ccc(C(=O)Nc2ccc3c(c2)CC(CC(=O)OCC)CC3)cc1 (configuration not stated)", "concentration at 1 h", "< 180 nM"),
    ("C=CCNC(=N)c1ccc(C(=O)Nc2ccc3c(c2)CC(CC(=O)OCC)CC3)cc1 (configuration not stated)", "concentration at 1 h", "380 nM"),
    ("CCOC(=O)CC1COc2ccc(NC(=O)c3ccc(C(=N)N4CCOCC4)cc3)cc2C1 (configuration not stated)", "concentration at 1 h", "8400 nM"),
    ("C#CCNC(=N)c1ccc(C(=O)Nc2ccc3c(c2)CC(CC(=O)OCC)CC3)cc1 (configuration not stated)", "concentration at 1 h", "1000 nM"),
    ("CCOC(=O)CC1CCc2ccc(NC(=O)c3ccc(C(=N)NCc4ccco4)cc3)cc2C1 (configuration not stated)", "concentration at 1 h", "850 nM"),
]
